- Tested on: FADD−/− Jurkat cells
- protocol.notes: Necroptosis inhibition assay, TNF-α-induced necroptosis (CellTiter-Glo 2.0)
- Format: cell-based, human
- settings: compound 10 μM; TNF-α 15 ng/mL, FADD−/− Jurkat cells
metric.name: Necroptosis inhibition assay (Rescue %) 10 μM
All answers are understood in %, so give the number only.

Short answer for Nc1ncc(-c2cnn(C3CCN(C(=O)C4CCN(C(=O)CNc5cccc6nnn(C7CCC(=O)NC7=O)c(=O)c56)CC4)CC3)c2)nc1C(=O)O[C@@H](C(=O)Nc1ccc(F)cc1)c1ccccc1 (stereo partly drawn) : Necroptosis inhibition assay (Rescue %) 10 μM was 18.59

Short answer for Nc1ncc(-c2cnn(C3CCN(CCCN4CC5CN(C(=O)CNc6ccc7c(c6)C(=O)N(C6CCC(=O)NC6=O)C7=O)CC5C4)CC3)c2)nc1C(=O)O[C@@H](C(=O)Nc1ccc(F)cc1)c1ccccc1 (stereo partly drawn) : Necroptosis inhibition assay (Rescue %) 10 μM was −9.09

Short answer for Nc1ncc(-c2cnn(C3CCN(C(=O)CCC4CCN(C(=O)CC5CCN(c6cccc7c6C(=O)N(C6CCC(=O)NC6=O)C7=O)CC5)CC4)CC3)c2)nc1C(=O)O[C@@H](C(=O)Nc1ccc(F)cc1)c1ccccc1 (stereo partly drawn) : Necroptosis inhibition assay (Rescue %) 10 μM was 11.03

* * *

- assayed.target: MLKL (Homo sapiens)
- protocol.notes: MLKL degradation assay in HepG2 cell line (western blot)
- Type: cell-based
- Parameters: endogenous in cells; host or cells: HepG2 or HaCaT
- settings: compound 10 μM; cell line not given
Kindly supply the reported Degradation assay (Degradation %) 10 μM values for the records listed here.
All answers are understood in %, so give the number only.

Short answer for Nc1ncc(-c2cnn(C3CCN(CCOCCOCCOCCNC(=O)COc4ccc5c(c4)C(=O)N(C4CCC(=O)NC4=O)C5=O)CC3)c2)nc1C(=O)O[C@@H](C(=O)Nc1ccc(F)cc1)c1ccccc1 (some centres unmarked) : Degradation assay (Degradation %) 10 μM was 60.05

Short answer for Nc1ncc(-c2cnn(C3CCN(CC4CCN(C(=O)CNc5ccc6c(c5)C(=O)N(C5CCC(=O)NC5=O)C6=O)CC4)CC3)c2)nc1C(=O)O[C@@H](C(=O)Nc1ccc(F)cc1)c1ccccc1 (some centres unmarked) : Degradation assay (Degradation %) 10 μM was 54.94

Short answer for Nc1ncc(-c2cnn(C3CCN(CCOC4CCN(C(=O)C5CN(C6=CC(=O)N(C7CCC(=O)NC7=O)C6=O)C5)CC4)CC3)c2)nc1C(=O)O[C@@H](C(=O)Nc1ccc(F)cc1)c1ccccc1 (some centres unmarked) : Degradation assay (Degradation %) 10 μM was 69.17

Short answer for Nc1ncc(-c2cnn(C3CCN(CCC4CCN(C(=O)COc5ccc6c(c5)C(=O)N(C5CCC(=O)NC5=O)C6=O)CC4)CC3)c2)cc1C(=O)OC(C(=O)Nc1ccc(F)cc1)c1ccccc1 (centres unmarked) : Degradation assay (Degradation %) 10 μM was 69.42

Short answer for Nc1ncc(-c2cnn(C3CCN(CCC4CCN(C(=O)CNc5cccc6c5C(=O)N(C5CCC(=O)NC5=O)C6=O)CC4)CC3)c2)cc1C(=O)OC(C(=O)Nc1ccc(F)cc1)c1ccccc1 (centres unmarked) : Degradation assay (Degradation %) 10 μM was 82.05

* * *

Kindly supply the reported Degradation assay (Degradation %) 1 μM values for the records listed here.
- assayed.target: MLKL (Homo sapiens, UniProt Q8NB16)
- Sequence (Q8NB16 whole entry): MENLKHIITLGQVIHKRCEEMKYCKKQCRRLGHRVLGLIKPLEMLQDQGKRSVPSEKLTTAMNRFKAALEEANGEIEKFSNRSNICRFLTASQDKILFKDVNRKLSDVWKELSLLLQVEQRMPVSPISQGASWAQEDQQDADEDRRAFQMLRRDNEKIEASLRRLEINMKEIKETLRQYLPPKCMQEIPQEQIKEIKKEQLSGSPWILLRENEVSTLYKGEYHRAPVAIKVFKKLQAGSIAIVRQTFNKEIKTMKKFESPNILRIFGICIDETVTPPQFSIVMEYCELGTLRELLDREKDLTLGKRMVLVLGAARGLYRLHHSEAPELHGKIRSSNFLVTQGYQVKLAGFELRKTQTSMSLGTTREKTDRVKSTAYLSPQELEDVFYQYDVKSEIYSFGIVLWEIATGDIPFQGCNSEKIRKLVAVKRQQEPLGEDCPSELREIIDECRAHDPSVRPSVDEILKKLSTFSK
- protocol.notes: MLKL degradation assay in HepG2 cell line (western blot)
- Type: cell-based
- Design: endogenous in cells; host or cells: HepG2 or HaCaT
- settings: compound 1 μM; cell line not given
All answers are understood in %, so give the number only.

Short answer for Nc1ncc(-c2cnn(C3CCN(C(=O)C4CCN(C(=O)CNc5ccc6nnn(C7CCC(=O)NC7=O)c(=O)c6c5)CC4)CC3)c2)nc1C(=O)O[C@@H](C(=O)Nc1ccc(F)cc1)c1ccccc1 (some centres unmarked) : Degradation assay (Degradation %) 1 μM was 77.02

Short answer for Nc1ncc(-c2cnn(C3CCN(C[C@H]4CC[C@H](CNC(=O)CNc5cccc6c5C(=O)N(C5CCC(=O)NC5=O)C6=O)CC4)CC3)c2)nc1C(=O)O[C@@H](C(=O)Nc1ccc(F)cc1)c1ccccc1 (some centres unmarked) : Degradation assay (Degradation %) 1 μM was 77.96

Short answer for Nc1ncc(-c2cnn(C3CCN(CCCN4CCN(C(=O)CNc5ccc6c(c5)C(=O)N(C5CCC(=O)NC5=O)C6=O)CC4)CC3)c2)nc1C(=O)O[C@@H](C(=O)Nc1ccc(F)cc1)c1ccccc1 (some centres unmarked) : Degradation assay (Degradation %) 1 μM was 84.79

Short answer for Nc1ncc(-c2cnn(C3CCN(CCCN4CCN(CC5CCN(C(=O)COc6ccc7c(c6)C(=O)N(C6CCC(=O)NC6=O)C7=O)CC5)CC4)CC3)c2)nc1C(=O)O[C@@H](C(=O)Nc1ccc(F)cc1)c1ccccc1 (some centres unmarked) : Degradation assay (Degradation %) 1 μM was 81.51

Short answer for Nc1ncc(-c2cnn(C3CCN(C(=O)CCC4CCN(C(=O)COc5cccc6c5C(=O)N(C5CCC(=O)NC5=O)C6=O)CC4)CC3)c2)nc1C(=O)O[C@@H](C(=O)Nc1ccc(F)cc1)c1ccccc1 (some centres unmarked) : Degradation assay (Degradation %) 1 μM was 89.91
